B1: PWWP2B (parent)
chain: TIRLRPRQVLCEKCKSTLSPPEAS

Variants of: B1
Test: protein stability index of a GFP-peptide fusion (GPS, HEK-293T) (PSI 1-6); higher = more stable;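 further: lentivirally expressed fusions sorted by FACS into six bins by GFP to DsRed ratio, PSI derived from sequencing read proportions per bin multiplied by bin number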
Settings: c terminus: a fixed tail appended
Assign protein stability index to each entry below.
Number only, no unit.

Entry R7Q — recorded protein stability index = 3.38

Entry K13F — recorded protein stability index = 2.46

Entry S16R — recorded protein stability index = 3.2

Entry T17W — recorded protein stability index = 1.89

Entry V9F — recorded protein stability index = 2.72

Entry L18H — recorded protein stability index = 3.85

Entry A23L — recorded protein stability index = 2.47

Entry Q8T — recorded protein stability index = 2.76

Entry E12F — recorded protein stability index = 2.25

Entry A23N — recorded protein stability index = 3.12
